meta.source: ChEMBL document CHEMBL4261497

Each item that follows carries a reported pKi.
TEST_SYSTEM: Ectonucleotide pyrophosphatase/phosphodiesterase family member 1 (Rattus norvegicus, UniProt Q924C3)
Sequence (Q924C3 whole entry): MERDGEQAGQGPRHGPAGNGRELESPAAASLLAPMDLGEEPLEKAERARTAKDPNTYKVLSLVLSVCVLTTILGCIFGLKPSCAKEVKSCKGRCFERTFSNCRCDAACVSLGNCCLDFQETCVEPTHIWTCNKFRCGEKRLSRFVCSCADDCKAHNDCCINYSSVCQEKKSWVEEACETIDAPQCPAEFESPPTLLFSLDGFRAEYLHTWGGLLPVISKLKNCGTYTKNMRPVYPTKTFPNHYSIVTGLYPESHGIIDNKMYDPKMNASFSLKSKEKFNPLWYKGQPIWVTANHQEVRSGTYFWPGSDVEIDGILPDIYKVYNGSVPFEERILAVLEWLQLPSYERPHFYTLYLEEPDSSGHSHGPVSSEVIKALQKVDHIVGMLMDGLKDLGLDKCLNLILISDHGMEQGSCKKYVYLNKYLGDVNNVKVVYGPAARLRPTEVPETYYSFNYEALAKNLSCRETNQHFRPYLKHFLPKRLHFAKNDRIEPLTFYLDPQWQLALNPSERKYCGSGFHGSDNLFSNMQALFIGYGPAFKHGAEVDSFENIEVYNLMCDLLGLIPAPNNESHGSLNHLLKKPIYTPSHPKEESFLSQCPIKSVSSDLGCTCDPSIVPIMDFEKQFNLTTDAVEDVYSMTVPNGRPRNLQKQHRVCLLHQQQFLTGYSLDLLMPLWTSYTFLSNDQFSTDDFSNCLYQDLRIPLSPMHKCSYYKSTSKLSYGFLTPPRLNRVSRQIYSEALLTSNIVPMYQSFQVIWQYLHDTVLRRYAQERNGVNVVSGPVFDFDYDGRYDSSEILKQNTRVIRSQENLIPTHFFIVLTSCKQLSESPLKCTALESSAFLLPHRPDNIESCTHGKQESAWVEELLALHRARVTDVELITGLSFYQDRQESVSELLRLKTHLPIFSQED
TEST: Competitive-inhibition of Wistar rat NPP1 using p-Nph-5'-TMP as substrate measured after 5 mins by UPLC method
// pKi: -log10(molar conc.)

1. Nc1ncnc2c1ncn2[C@@H]1O[C@H](COP(=O)(O)OP(=O)(O)OP(=O)(O)O)[C@@H](OC(=O)c2ccc(C(=O)c3ccccc3)cc2)[C@H]1O 4.69
2. Nc1ncnc2c1ncn2[C@@H]1O[C@H](COP(=O)(O)CP(=O)(O)OP(=O)(O)O)[C@@H](O)[C@H]1O 5.66
3. CSc1nc(N)c2ncn([C@@H]3O[C@H](COP(=O)(O)OP(=O)(O)OP(=O)(O)O)[C@@H](O)[C@H]3O)c2n1 4.69

Okay, now this molecule:
In: If you can, please state the reported pKi value of Nc1ncnc2c1ncn2[C@@H](C=O)O[C@@H](C=O)COP(=O)(O)OP(=O)(O)OP(=O)(O)O .
Out: 5.01

====

TEST_SYSTEM: Ectonucleotide pyrophosphatase/phosphodiesterase family member 1 (Homo sapiens)
TEST: Uncompetitive-inhibition of recombinant human N-terminal His-tagged soluble NPP1 (Val191 to Leu591 residues) expressed in mouse NSO cells using p-Nph-5'-AMP as substrate after 30 mins by capillary electrophoresis method
TEST_READOUT: Ki (µM)
Your answer should be a plain number; it is taken to be in µM.

In: If you can, please state the reported Ki value of Nc1ncnc2c1ncn2[C@@H](C=O)O[C@@H](C=O)COP(=O)(O)OP(=O)(O)OP(=O)(O)O .
Out: 5.08

====

Each item that follows carries a reported pKi.
TEST_SYSTEM: Ectonucleotide pyrophosphatase/phosphodiesterase family member 1 (Homo sapiens, UniProt P22413)
Sequence (P22413 whole entry): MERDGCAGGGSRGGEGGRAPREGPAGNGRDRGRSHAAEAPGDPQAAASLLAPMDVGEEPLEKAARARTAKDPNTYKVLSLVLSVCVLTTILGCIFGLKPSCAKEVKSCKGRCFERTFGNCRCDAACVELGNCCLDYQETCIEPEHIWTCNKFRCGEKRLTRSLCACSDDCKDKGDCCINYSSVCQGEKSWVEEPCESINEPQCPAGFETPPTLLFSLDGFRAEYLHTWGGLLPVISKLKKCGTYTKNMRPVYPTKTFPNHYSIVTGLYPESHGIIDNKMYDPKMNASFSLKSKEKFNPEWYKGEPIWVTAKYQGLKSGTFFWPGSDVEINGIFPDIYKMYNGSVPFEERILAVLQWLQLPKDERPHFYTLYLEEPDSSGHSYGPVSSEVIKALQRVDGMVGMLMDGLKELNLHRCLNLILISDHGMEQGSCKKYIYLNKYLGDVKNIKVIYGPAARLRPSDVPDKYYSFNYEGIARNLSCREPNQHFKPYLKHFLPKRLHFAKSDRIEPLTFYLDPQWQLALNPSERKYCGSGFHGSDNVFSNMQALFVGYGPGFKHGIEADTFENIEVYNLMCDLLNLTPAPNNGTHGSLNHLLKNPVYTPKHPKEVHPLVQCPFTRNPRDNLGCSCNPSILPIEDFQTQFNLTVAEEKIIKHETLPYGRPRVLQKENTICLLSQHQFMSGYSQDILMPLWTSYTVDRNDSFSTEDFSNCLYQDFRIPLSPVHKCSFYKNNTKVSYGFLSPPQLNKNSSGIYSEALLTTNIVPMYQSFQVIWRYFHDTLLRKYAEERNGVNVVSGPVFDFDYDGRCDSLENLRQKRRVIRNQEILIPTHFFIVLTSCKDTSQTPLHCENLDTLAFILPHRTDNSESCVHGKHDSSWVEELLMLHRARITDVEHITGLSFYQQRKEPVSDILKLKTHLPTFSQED
TEST: Competitive-inhibition of recombinant human N-terminal His-tagged soluble NPP1 (Val191 to Leu591 residues) expressed in mouse NSO cells using ATP as substrate after 30 mins by capillary electrophoresis method
// pKi: -log10(molar conc.)

1. Nc1ncnc2c1ncn2[C@@H]1O[C@H](COP(=O)(O)OP(=O)(O)OP(=O)(O)O)[C@@H](OC(=O)c2ccc(C(=O)c3ccccc3)cc2)[C@H]1O 4.84
2. Nc1ncnc2c1ncn2[C@@H]1O[C@H](COP(=O)(O)CP(=O)(O)O)[C@@H](O)[C@H]1O 4.61
3. CSc1nc(N)c2ncn([C@@H]3O[C@H](COP(=O)(O)OP(=O)(O)OP(=O)(O)O)[C@@H](O)[C@H]3O)c2n1 4.67

Okay, now this compound:
In: If you can, please state the reported pKi value of CSc1nc(N)c2ncn([C@@H]3O[C@H](COP(=O)(O)OP(=O)(O)O)[C@@H](O)[C@H]3O)c2n1 .
Out: 4.63
